# System Tested: G250E Bcr-abl (Homo sapiens, UniProt P00519, G250E)
# Construct: the other entry of the earlier key: BCR (P11274, Breakpoint cluster region protein)
# Protocol Details: Antiproliferative effect on Ba/F3 cells expressing mutant Bcr-abl G250E
Experimental Endpoint: pIC50
Expect pIC50 as a plain number equal to -log10 of the molar concentration.

Look up pIC50 for this compound: "NC(=O)c1ccc(-c2cc(-c3cc(Nc4ccc(OC(F)(F)F)cc4)ncn3)ccn2)cc1" 5.32

###

# System Tested: wild-type Bcr-abl (Homo sapiens, UniProt P00519)
# Construct: the other entry of the earlier key: BCR (P11274, Breakpoint cluster region protein)
# Protocol Details: Antiproliferative effect on Ba/F3 cells expressing wild type Bcr-abl
Experimental Endpoint: pIC50
Expect pIC50 as a plain number equal to -log10 of the molar concentration.

Look up pIC50 for this compound: "NC(=O)c1ccc(-c2cc(-c3cc(Nc4ccc(OC(F)(F)F)cc4)ncn3)ccn2)cc1" 6.70
